# TESTED ON: human δ-opioid receptor, OPRD (Homo sapiens, UniProt P41143)
# Construct: host or cells: HEK-293 overexpressing β-arrestin2 fused to a β-galactosidase fragment
# Sequence (P41143 whole entry, the tested form may be a part): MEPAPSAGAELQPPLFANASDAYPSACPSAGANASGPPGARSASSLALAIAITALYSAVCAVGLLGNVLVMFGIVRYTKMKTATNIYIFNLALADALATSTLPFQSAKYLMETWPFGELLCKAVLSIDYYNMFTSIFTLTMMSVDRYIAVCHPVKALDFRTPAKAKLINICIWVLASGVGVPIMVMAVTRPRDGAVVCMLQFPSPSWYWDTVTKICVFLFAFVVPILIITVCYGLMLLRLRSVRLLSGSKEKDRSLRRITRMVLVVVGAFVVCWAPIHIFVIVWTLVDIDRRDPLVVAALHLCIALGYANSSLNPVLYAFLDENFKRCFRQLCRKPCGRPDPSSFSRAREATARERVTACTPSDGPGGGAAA
# EXPERIMENT DESCRIPTION: Dominant assay: cAMP assay with/without irreversible antagonist β-CNA, OPRD cell line; for OPRD Gi β-CNA (+) Emax (%): test concentration or dose not given here
# Format: cell-based
# SETUP CONDITIONS: addition of β-CNA; repeated dominant assay, Example 4, Tables 8-10
QUANTITY KIND: OPRD Gi β-CNA (+) Emax (%)

• CN(C)C(CNC(=O)Cc1ccc2c(c1)OCCO2)c1ccccc1 (single isomer, unassigned) [Compound 5] = 65.27
• Cc1ccccc1NC(=O)NCC(c1ccc2c(c1)CCO2)N(C)C (single isomer, unassigned) = 51.61
• CN1CCc2cc(C(CNC(=O)Nc3ccc(F)cc3)N(C)C)ccc21 (single isomer, unassigned) = 81.99
• CN(C)C(CNC(=O)Cc1ccc2c(c1)OCCO2)c1ccccc1 (single isomer, unassigned) [Compound 4] = 108.1

---

# TESTED ON: human δ-opioid receptor, OPRD (Homo sapiens)
# Construct: host or cells: HEK-293 overexpressing β-arrestin2 fused to a β-galactosidase fragment
# EXPERIMENT DESCRIPTION: Dominant assay: cAMP assay with/without irreversible antagonist β-CNA, OPRD cell line; for OPRD Gi β-CNA (+) Emax (%): test concentration or dose not given here
# Format: cell-based
# SETUP CONDITIONS: addition of β-CNA; Example 3, Tables 5-7
# Description: To confirm the agonist's efficacy in a nature-like system, we need inactivation of target receptors on the cell membrane. Most cell lines have an abundant target receptor population (also known as spare receptors). Therefore, agonists have more opportunity to constitute agonist-receptor conformation. In this environment, not only full agonists but also partial agonists can reach maximal response. If the partial agonist is selected as a full agonist, translational in vivo research will likely fail. […]
QUANTITY KIND: OPRD Gi β-CNA (+) Emax (%)

* CN(C)C(CNC(=O)Cc1ccc2c(c1)OCCO2)c1ccccc1 (single isomer, unassigned) [Compound 5] | 79.38
* Cc1ccccc1NC(=O)NCC(c1ccc2c(c1)CCO2)N(C)C (single isomer, unassigned) | 51.61
* CN(C)C(CNC(=O)Cc1ccc2c(c1)OCCO2)c1ccccc1 (single isomer, unassigned) [Compound 4] | 17.23
* C[C@@H](Cc1ccsc1)NC(=O)NC[C@H](Cc1ccc(O)cc1)N(C)C [PZM21, reference compound] | 58.77
* CN1CCc2cc(C(CNC(=O)Nc3ccc(F)cc3)N(C)C)ccc21 (single isomer, unassigned) | 100.2

---

Listing of entries alongside the reported OPRD Gi β-CNA (−) Emax (%).
# TESTED ON: human δ-opioid receptor, OPRD (Homo sapiens, UniProt P41143)
# Construct: host or cells: HEK-293 overexpressing β-arrestin2 fused to a β-galactosidase fragment
# EXPERIMENT DESCRIPTION: Dominant assay: cAMP assay with/without irreversible antagonist β-CNA, OPRD cell line
# Type: cell-based
# SETUP CONDITIONS: no addition of β-CNA; repeated dominant assay, Example 4, Tables 8-10
QUANTITY KIND: OPRD Gi β-CNA (−) Emax (%)

- Cc1ccccc1NC(=O)NCC(c1ccc2c(c1)CCO2)N(C)C (single isomer, unassigned) [Compound 8]: 102.7
- CN(C)C(CNC(=O)Cc1ccc2c(c1)OCCO2)c1ccccc1 (single isomer, unassigned): 100
- Cc1ccccc1NC(=O)NCC(c1ccc2c(c1)CCO2)N(C)C (single isomer, unassigned) [Compound 9]: 139
- CN1CCc2cc(C(CNC(=O)Nc3ccc(F)cc3)N(C)C)ccc21 (single isomer, unassigned): 100.2

---

# reported OPRM β-ARR2 Emax (%); entries follow
# TESTED ON: human μ-opioid receptor, OPRM (Homo sapiens, UniProt P35372)
# Construct: host or cells: HEK-293 overexpressing β-arrestin2 fused to a β-galactosidase fragment
# Sequence (P35372 whole entry, the tested form may be a part): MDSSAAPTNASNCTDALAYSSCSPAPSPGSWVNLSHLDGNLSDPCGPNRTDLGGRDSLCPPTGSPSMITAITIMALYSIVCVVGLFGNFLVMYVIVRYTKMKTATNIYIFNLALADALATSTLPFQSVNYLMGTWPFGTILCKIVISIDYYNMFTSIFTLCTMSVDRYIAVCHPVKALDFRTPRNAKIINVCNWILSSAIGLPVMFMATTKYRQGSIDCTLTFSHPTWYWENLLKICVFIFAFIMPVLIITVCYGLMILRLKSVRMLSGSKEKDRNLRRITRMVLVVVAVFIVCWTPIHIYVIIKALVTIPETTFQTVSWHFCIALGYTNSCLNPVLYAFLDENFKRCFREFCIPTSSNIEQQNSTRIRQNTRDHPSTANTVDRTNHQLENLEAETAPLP
# EXPERIMENT DESCRIPTION: PathHunter β-arrestin 2 assay, OPRM cell line
# Format: cell-based
# SETUP CONDITIONS: Example 3, Tables 5-7
# From the text: […] Because […] β-arrestin 2 and C-terminal of GPCR have a fragment of β-galactosidase, recruitment of β-arrestin 2 to GPCR forms the whole β-galactosidase. The functionality of the whole β-galactosidase is detected by chemiluminescence (FlexStation3, Molecular Devices). […]
QUANTITY KIND: OPRM β-ARR2 Emax (%)

• CN1CCc2cc(C(CNC(=O)Nc3ccc(F)cc3)N(C)C)ccc21 (single isomer, unassigned) [Compound 6] = 8.5
• CN(C)C(CNC(=O)Cc1ccc2c(c1)OCCO2)c1ccccc1 (single isomer, unassigned) [Compound 4] = 4.8
• Cc1ccccc1NC(=O)NCC(c1ccc2c(c1)CCO2)N(C)C (single isomer, unassigned) [Compound 9] = 22.9
• Cc1ccccc1NC(=O)NCC(c1ccc2c(c1)CCO2)N(C)C (single isomer, unassigned) [Compound 8] = 5.4
• CN1CCc2cc(C(CNC(=O)Nc3ccc(F)cc3)N(C)C)ccc21 (single isomer, unassigned) [Compound 7] = 22.0
• CN(C)C(CNC(=O)Cc1ccc2c(c1)OCCO2)c1ccccc1 (single isomer, unassigned) [Compound 5] = 23.1

---

The reader will find reported Emax values listed item by item below.
# TESTED ON: human μ-opioid receptor, OPRM (Homo sapiens)
# Construct: host or cells: HEK-293 overexpressing β-arrestin2 fused to a β-galactosidase fragment
# EXPERIMENT DESCRIPTION: Dominant assay: cAMP assay with/without irreversible antagonist β-FNA, OPRM cell line
# Type: cell-based
# SETUP CONDITIONS: no addition of β-FNA; repeated dominant assay, Example 4, Tables 8-10; read-out: OPRM Gi β-FNA (−) Emax (%)
# Excerpt: To confirm the agonist's efficacy in a nature-like system, we need inactivation of target receptors on the cell membrane. Most cell lines have an abundant target receptor population (also known as spare receptors). Therefore, agonists have more opportunity to constitute agonist-receptor conformation. In this environment, not only full agonists but also partial agonists can reach maximal response. If the partial agonist is selected as a full agonist, translational in vivo research will likely fail. […]
QUANTITY KIND: Emax (%)

- Cc1ccccc1NC(=O)NCC(c1ccc2c(c1)CCO2)N(C)C (racemic) [Compound 3]: 102
- CN1CCc2cc(C(CNC(=O)Nc3ccc(F)cc3)N(C)C)ccc21 (racemic) [Compound 2]: 103
- Cc1ccccc1NC(=O)NCC(c1ccc2c(c1)CCO2)N(C)C (single isomer, unassigned) [Compound 8]: 91.6
- CN1CCc2cc(C(CNC(=O)Nc3ccc(F)cc3)N(C)C)ccc21 (single isomer, unassigned) [Compound 6]: 100
- CN(C)C(CNC(=O)Cc1ccc2c(c1)OCCO2)c1ccccc1 (racemic) [Compound 1]: 100
- CN(C)C(CNC(=O)Cc1ccc2c(c1)OCCO2)c1ccccc1 (single isomer, unassigned) [Compound 4]: 100

---

# TESTED ON: human δ-opioid receptor, OPRD (Homo sapiens, UniProt P41143)
# Construct: host or cells: HEK-293 overexpressing β-arrestin2 fused to a β-galactosidase fragment
# EXPERIMENT DESCRIPTION: Dominant assay: cAMP assay with/without irreversible antagonist β-CNA, OPRD cell line
# Format: cell-based
# SETUP CONDITIONS: no addition of β-CNA; Example 3, Tables 5-7; read-out: OPRD Gi β-CNA (−) Emax (%)
QUANTITY KIND: Emax (%)

- CN(C)C(CNC(=O)Cc1ccc2c(c1)OCCO2)c1ccccc1 (racemic) [Compound 1]: 113
- CN1CCc2cc(C(CNC(=O)Nc3ccc(F)cc3)N(C)C)ccc21 (racemic) [Compound 2]: 98.9
- COc1ccsc1CNCC[C@@]1(c2ccccn2)CCOC2(CCCC2)C1 [TRV130, reference compound]: 73.9
- Cc1ccccc1NC(=O)NCC(c1ccc2c(c1)CCO2)N(C)C (racemic) [Compound 3]: 106

---

Each entry below carries its reported pEC50.
# TESTED ON: human μ-opioid receptor, OPRM (Homo sapiens, UniProt P35372)
# Construct: host or cells: HEK-293 overexpressing β-arrestin2 fused to a β-galactosidase fragment
# EXPERIMENT DESCRIPTION: cAMP accumulation assay (Gi pathway), OPRM cell line
# Format: cell-based
# SETUP CONDITIONS: Table 1; cAMP
pEC50: −log10 of the molar value.
QUANTITY KIND: pEC50

* Cc1ccccc1NC(=O)NCC(c1ccc2c(c1)CCO2)N(C)C (racemic) | 5.89
* CN(C)C(CNC(=O)Cc1ccc2c(c1)OCCO2)c1ccccc1 (racemic) | 6.14
* CN1CCc2cc(C(CNC(=O)Nc3ccc(F)cc3)N(C)C)ccc21 (racemic) | 5.73

---

Collected log10 of EC50 values appear next to each entry.
# TESTED ON: human μ-opioid receptor, OPRM (Homo sapiens, UniProt P35372)
# Construct: host or cells: HEK-293 overexpressing β-arrestin2 fused to a β-galactosidase fragment
# EXPERIMENT DESCRIPTION: Dominant assay: cAMP assay with/without irreversible antagonist β-FNA, OPRM cell line; for EC50: test concentration or dose not given here
# Format: cell-based
# SETUP CONDITIONS: addition of β-FNA; Example 3, Tables 5-7; read-out: OPRM Gi β-FNA (+) EC50
QUANTITY KIND: log10 of EC50 (log10 of the value in µM)

* CN(C)C(CNC(=O)Cc1ccc2c(c1)OCCO2)c1ccccc1 (racemic) [Compound 1] | 0.77
* Cc1ccccc1NC(=O)NCC(c1ccc2c(c1)CCO2)N(C)C (racemic) [Compound 3] | 0.20
* CN1CCc2cc(C(CNC(=O)Nc3ccc(F)cc3)N(C)C)ccc21 (single isomer, unassigned) [Compound 6] | 0.39
* Cc1ccccc1NC(=O)NCC(c1ccc2c(c1)CCO2)N(C)C (single isomer, unassigned) [Compound 9] | 0.22
* CN1CCc2cc(C(CNC(=O)Nc3ccc(F)cc3)N(C)C)ccc21 (single isomer, unassigned) [Compound 7] | -0.14
* Cc1ccccc1NC(=O)NCC(c1ccc2c(c1)CCO2)N(C)C (single isomer, unassigned) [Compound 8] | 1.15
* CN(C)C(CNC(=O)Cc1ccc2c(c1)OCCO2)c1ccccc1 (single isomer, unassigned) [Compound 4] | 1.04
* CN1CCc2cc(C(CNC(=O)Nc3ccc(F)cc3)N(C)C)ccc21 (racemic) [Compound 2] | 0.07
* CN(C)C(CNC(=O)Cc1ccc2c(c1)OCCO2)c1ccccc1 (single isomer, unassigned) [Compound 5] | 0.39

The values you see were collected from patent US20220204449A1.
